The values you see were collected from patent US20240294651A1.

# experimental.system: human CXCR4 (cell-expressed) (human, UniProt P61073 1-352)
# Sequence (P61073 whole entry): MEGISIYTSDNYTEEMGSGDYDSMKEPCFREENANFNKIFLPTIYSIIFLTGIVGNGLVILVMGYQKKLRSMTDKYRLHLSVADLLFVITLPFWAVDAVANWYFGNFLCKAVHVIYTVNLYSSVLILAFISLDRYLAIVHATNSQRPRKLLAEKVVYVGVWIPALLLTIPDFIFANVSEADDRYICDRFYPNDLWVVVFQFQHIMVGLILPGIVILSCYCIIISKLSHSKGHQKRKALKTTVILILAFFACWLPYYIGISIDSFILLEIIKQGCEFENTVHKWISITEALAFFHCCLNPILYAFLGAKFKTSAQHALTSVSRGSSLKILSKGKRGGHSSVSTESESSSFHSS
# protocol.notes: cell-based or functional assay
Each entry below lists one item and its recorded IC50, beta-arrestin reporter assay, Tango CXCR4-bla U2OS cells, 30 nM CXCL12 value.
Reply numerically in nM, unit not repeated.

- CL-82558 (antibody, human IgG4 S228P, kappa, V domains shown, Tested in human IgG4-PE format; also called CL-82558 (IgG4-PE format)) VH: QVQLQESGPGLVKPSQTLSLTCTVSGGSISSGGYYWSWIRQVPGKGLEWIGYISYSGNTFYSPSLKSRVTISVDTSENKFSLRLTSVTAADTAVYFCARDRRIPMLRGVKGYYYGLDVWGQGTTVTVSS VL: DIVMTQSPLSLPVIPGEPASISCRSSQSLLHRNGYKYLDWYLQKPGQSPQLLIYLGSNRASGVPARFSGSGSGTDFTLKISRVEAEDVGVYYCMQALQTPWTFGQGTKVEIKR: 0.07
- CL-82517 (antibody, human IgG4 S228P, kappa, V domains shown, Tested in human IgG4-PE format) VH: EVQLVESGGGLVKPGGSLRLSCAASGFTFSSYSMNWVRQAPGKGLEWVSSISSSRRYIYYADSVKGRFTISRDNAKNSLYLQMNSLRAEDTAVYYCARAYGQVAPYYYYGMDVWGQGTTVTVSS VL: AIQLTQSPSSLSASVGDRVTITCRASQGISSALAWYQQKPGKAPKLLIYDASSLESGVPSRFSGSGSGTDFTLTISSLQPEDFATYYCQQFNSYPLTFGGGTKVEIKR: 0.84
- CL-82455 (antibody, human IgG4 S228P, kappa, V domains shown) VH: QVQLVESGGGVVQPGRSLRLSCAASGFTFNNYGMHWVRQAPGKGLEWVAVIWNDGSNKYYGDSVKGRFTISRDNSKNTLYLQMNSLRAEDTAVYYCARGGGYYGSGKHYRGYYYNGMGVWGQGTPVTVSS VL: EIVMTQSPATLSVSPGERATLSCRASQSVSSNLAWYQQKPGQAPRLLIYGASTRATGIPARFSGSGSGTEVTLTISSLQSEDFTIYYCQQYNNWPWTFGQGTKVDIKR: 9.12
- CL-82495 (antibody, human IgG4 S228P, kappa, V domains shown, Tested in human IgG4-PE format) VH: QVQLVESGGGVVQPGRSLRLSCEASGFTLSSYGMHWVRQAPGKGLEWVAVIWNDGSNKYSADSVKGRFTISRDNSKNTLYLQMNRLRAEDTAVYYCARGGGYYGSGSHYRGYYYYGMDVWGQGTTVTVSS VL: DIQMTQSPSSLSASVGDRVTITCRASQGIRNDLGWYQQKPGKAPKRLIYAASSLQSGVPSRFSGSGSGTEFTLTISSLQPEDFATYYCLQHNSYPWTFGQGTKVEIKR: 2.08

q: Any idea what IC50, beta-arrestin reporter assay, Tango CXCR4-bla U2OS cells, 30 nM CXCL12 was measured for CL-82523 (antibody, human IgG4 S228P, kappa, V domains shown, Tested in human IgG4-PE format) VH: EVQLVESGGGLVQPGGSLRLSCAASGFTFSNYAMSWVRQAPRKGLEWVSVISGSGGRTNYAGSVKGRFSITRDNSKNTLYLQMNSLRAEDTAVYYCVKGQLERRYYYYYGMDVWGQGITVTVSS VL: DIQMTQSPSSLSASVGDRVTITCRASQGIRNDLGWYQQKPGKAPKRLIYAASSLQSGVPSRFSGSGSGTEFTLTISSLQPEDFATYYCLQHNSYPLTFGGGTKVEIKR ?
a: 0.08
